Reported AUC values for the following molecules.
measurement protocol: AUC in rat at 5 mg/kg, po
Format: ADME, organism-based
Design: dose 5 mg/kg, route oral
run parameters: plasma
Quick note: give the figure in µM·h, leave out the unit.

A selection of reference data follows.
CC(C)[C@H](C(=O)NO)N(CCc1ccccc1)S(=O)(=O)c1ccc2ccccc2c1	0.45
CC(C)[C@H](C(=O)NO)N(Cc1ccncc1)S(=O)(=O)c1ccc2ccccc2c1	0.32
CC(C)[C@H](C(=O)NO)N(CCN(C)C)S(=O)(=O)c1ccc2ccccc2c1	0.27
CC(C)CCN([C@@H](C(=O)NO)C(C)O)S(=O)(=O)c1ccc2ccccc2c1 (stereo partly specified)	3.1
CC(C)[C@H](C(=O)NO)N(Cc1cccnc1)S(=O)(=O)c1ccc2ccccc2c1	0.55

The molecule listed as `CC(C)CCN([C@@H](C(=O)NO)C(C)C)S(=O)(=O)c1ccc2sccc2c1` has a reported AUC of 1.5

Looking up `CC(C)CCN([C@H](CO)C(=O)NO)S(=O)(=O)c1ccc2ccccc2c1` , I see its AUC listed as 2.4

`CC(C)CCN([C@@H](C(=O)NO)C(C)C)S(=O)(=O)c1ccc2ccccc2c1` yielded AUC of 1.5

The reported AUC of the molecule `CC(C)CCN([C@@H](C(=O)NO)C(C)(C)C)S(=O)(=O)c1ccc2ccccc2c1` was 7.2

The measured AUC associated with `CC(C)CCN([C@@H](C(=O)NO)C(C)C)S(=O)(=O)c1ccc2ccccc2n1` reads 0.13

The reported value for `CC(C)CCN([C@@H](C(=O)NO)C(C)C)S(=O)(=O)c1ccc2ncccc2c1` in terms of AUC is 4.6
